- TESTED_TARGET: NR2F6 (Homo sapiens, UniProt P10588)
- Construct: expressed in transfected cells; also transient transfection
- Sequence (P10588 1-404): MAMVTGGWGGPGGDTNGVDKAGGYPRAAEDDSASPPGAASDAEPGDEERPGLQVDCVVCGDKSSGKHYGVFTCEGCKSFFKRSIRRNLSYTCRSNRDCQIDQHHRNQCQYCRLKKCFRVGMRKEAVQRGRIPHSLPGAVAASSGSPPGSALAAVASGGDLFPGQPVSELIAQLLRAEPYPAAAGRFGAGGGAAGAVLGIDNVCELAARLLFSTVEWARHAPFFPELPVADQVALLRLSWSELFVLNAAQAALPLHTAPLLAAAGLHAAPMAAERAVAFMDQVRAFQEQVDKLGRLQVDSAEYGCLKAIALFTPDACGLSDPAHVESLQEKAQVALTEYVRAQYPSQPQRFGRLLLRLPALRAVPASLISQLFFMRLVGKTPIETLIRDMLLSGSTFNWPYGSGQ
- TEST_NAME: NR2F6 agonist screening, Firefly signal cmpd/DMSO
- Type: cell-based
- STUDY_CONDITIONS: Table 13; repeat 2
READOUT: Firefly, cmpd/DMSO repeat 2

SMILES_TEXT | RESULT
O=c1oc2ccccc2cc1S(=O)(=O)c1ccc(Cl)cc1 | 4.8
Cc1ccc2oc(=O)c(S(=O)(=O)c3cccc(Cl)c3)cc2c1 | 7.4
Cc1ccc(NC(=O)c2ccc3oc(=O)c(S(=O)(=O)c4ccccc4)cc3c2)cc1 | 39.0
O=c1oc2ccc(F)cc2cc1S(=O)(=O)c1ccc(F)cc1 | 13.6
COc1ccc(NC(=O)c2ccc3oc(=O)c(S(=O)(=O)c4ccc(Cl)cc4)cc3c2)cc1 | 34.5
O=C(NCc1ccc(F)cc1)c1ccc2oc(=O)c(S(=O)(=O)c3ccc(F)cc3)cc2c1 | 17.1
O=c1oc2ccccc2cc1S(=O)(=O)c1cccc(Cl)c1 | 10.3
